Known Max MFI of a selection of binders
- ASSAYED TARGET: T1, human CDH6 with EC1 removed, on HEK293T cells (HEK293T-hCDH6-EC1 deletion) (human, UniProt P55285 160-790)
- T1 construct: Signal peptide not removed here
- T1 sequence: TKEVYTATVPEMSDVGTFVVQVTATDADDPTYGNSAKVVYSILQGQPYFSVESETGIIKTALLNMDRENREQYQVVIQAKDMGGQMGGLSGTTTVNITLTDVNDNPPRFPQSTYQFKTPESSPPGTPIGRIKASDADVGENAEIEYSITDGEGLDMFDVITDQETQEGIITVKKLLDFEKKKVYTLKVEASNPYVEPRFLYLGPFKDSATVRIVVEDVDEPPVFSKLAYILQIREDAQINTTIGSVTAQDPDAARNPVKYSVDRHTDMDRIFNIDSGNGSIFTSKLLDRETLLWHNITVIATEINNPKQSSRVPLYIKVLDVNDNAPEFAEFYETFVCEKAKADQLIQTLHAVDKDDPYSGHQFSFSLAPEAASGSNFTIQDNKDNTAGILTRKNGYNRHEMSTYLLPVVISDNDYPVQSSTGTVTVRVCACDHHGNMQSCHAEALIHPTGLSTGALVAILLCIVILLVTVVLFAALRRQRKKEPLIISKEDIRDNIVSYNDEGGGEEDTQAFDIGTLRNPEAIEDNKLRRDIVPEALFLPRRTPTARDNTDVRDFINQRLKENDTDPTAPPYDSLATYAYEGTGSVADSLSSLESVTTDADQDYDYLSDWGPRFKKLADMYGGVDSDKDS
- EXPERIMENTAL DETAILS: FACS, HEK293T-hCDH6-EC1 deletion cells
A number alone suffices; assume MFI.

# BINDER, Max MFI (MFI)
data = [
    ("CHI-CDH6-7 (antibody, human IgG1, kappa, V domains shown, also called CH1-CDH6-7; chimeric antibody of murine CDH6-7) VH: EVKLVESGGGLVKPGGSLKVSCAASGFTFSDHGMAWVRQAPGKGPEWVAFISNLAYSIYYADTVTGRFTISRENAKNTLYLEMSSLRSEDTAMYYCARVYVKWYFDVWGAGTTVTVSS VL: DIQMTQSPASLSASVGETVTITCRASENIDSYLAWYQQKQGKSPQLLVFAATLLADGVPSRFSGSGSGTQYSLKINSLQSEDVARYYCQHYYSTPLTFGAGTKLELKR", 88),
    ("CHI-CDH6-14 (antibody, human IgG1, kappa, V domains shown, also called CHI-hCDH6-14; CH1-CDH6-14) VH: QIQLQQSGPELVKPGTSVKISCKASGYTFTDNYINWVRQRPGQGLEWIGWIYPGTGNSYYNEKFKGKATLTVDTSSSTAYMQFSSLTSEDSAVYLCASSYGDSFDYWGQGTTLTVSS VL: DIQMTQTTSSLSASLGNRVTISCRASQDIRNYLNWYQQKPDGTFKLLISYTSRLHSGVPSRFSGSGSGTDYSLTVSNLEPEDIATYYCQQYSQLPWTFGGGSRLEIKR", 7210),
]

For DS-H01L02 (antibody, human IgG1, kappa, V domains shown, Positive control, variable regions from WO2018212136A1; also called positive control anti-human CDH6 antibody) VH: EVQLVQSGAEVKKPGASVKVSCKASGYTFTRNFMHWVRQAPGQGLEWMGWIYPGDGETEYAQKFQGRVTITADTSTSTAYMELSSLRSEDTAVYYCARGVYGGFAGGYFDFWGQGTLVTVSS VL: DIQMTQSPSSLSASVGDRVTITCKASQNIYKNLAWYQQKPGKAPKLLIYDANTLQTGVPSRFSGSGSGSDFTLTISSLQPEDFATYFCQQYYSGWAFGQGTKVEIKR the binder record lists Max MFI as 5290
